Data provenance: paper PMC5390315

Tested on: tubulin
Experiment: Inhibition of [3H]colchicine binding to tubulin
Conditions: 5 μM drug; tubulin 1 μM, [3H]colchicine 5 μM
Procedure: To evaluate the effect of the compounds on tubulin assembly in vitro[41], varying concentrations of compounds were preincubated with 10 μM bovine brain tubulin in 0.8 M monosodium glutamate (pH adjusted to 6.6 with HCl in a 2.0 M stock solution) at 30 °C and then cooled to 0 °C. […] The capacity of the test compounds to inhibit colchicine binding to tubulin was measured as described, except that the reaction mixtures contained 1 μM tubulin, 5 μM [^3H]colchicine and 1 or 5 μM test compound.
MEASURED_QUANTITY: Colchicine binding % inhibition ± S.D, 5 μM drug (%)
Could you give me the number in %? Just the number is fine.

Record excerpt, results attached:
COMPOUND	READOUT_UNIT	TEST_RESULT
COc1ccc(-c2oc(C)nc2-c2cc(OC)c(OC)c(OC)c2)cc1 [Compound 4e]	%	78
COc1cc(-c2oc(C)nc2-c2ccc3ccccc3c2)cc(OC)c1OC [Compound 5a]	%	64
CCOc1ccc(-c2oc(C)nc2-c2cc(OC)c(OC)c(OC)c2)cc1Cl [Compound 4j]	%	53
CCOc1ccc(-c2nc(C)oc2-c2cc(OC)c(OC)c(OC)c2)cc1 [Compound 5f]	%	72
COc1cc(-c2nc(C)oc2-c2ccc3ccccc3c2)cc(OC)c1OC [Compound 4a]	%	74

Query: // map COc1ccc(-c2nc(C)oc2-c2cc(OC)c(OC)c(OC)c2)cc1 [Compound 5e] to recorded Colchicine binding % inhibition ± S.D, 5 μM drug (system: tubulin)
Reply: 54

Query: // map COc1ccc(-c2oc(C)nc2-c2cc(OC)c(OC)c(OC)c2)cc1F [Compound 4g] to recorded Colchicine binding % inhibition ± S.D, 5 μM drug (system: tubulin)
Reply: 78
